tested on: 941728-121-R-J1-PDC complex spheroid viability; assay: Anticancer human tumor 941728-121-R-J1-PDC patient-derived lung adenocarcinoma cell line growth inhibition [RAS]; conditions: second compound 0.00949 µM; first compound 0.000949 µM; hits give low values;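 further: spheroids exposed to compounds for 7 days before readout; 100% = DMSO vehicle control viability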
Reported metric: viability, T/C (%)
Quick note: give the figure in %, leave out the unit.

Query: Provide measured viability, T/C value, entry: CCc1c2c(nc3ccc(O)cc13)-c1cc3c(c(=O)n1C2)COC(=O)[C@]3(O)CC + CCn1c(-c2cc(N3CCN(C)CC3)cnc2C(C)OC)c2c3cc(ccc31)-c1csc(n1)CC(NC(=O)C1CC1C)C(=O)N1CCCC(N1)C(=O)OCC(C)(C)C2
Response: 17.3

Query: Provide measured viability, T/C value, entry: CCc1c2c(nc3ccc(O)cc13)-c1cc3c(c(=O)n1C2)COC(=O)[C@]3(O)CC + CCn1c(-c2cccnc2C(C)OC)c2c3cc(ccc31)N1CCOC(CC(NC(=O)C(C(C)C)N(C)C(=O)C3(F)CCN(C(=O)C#CC(C)(C)N(C)C)CC3)C(=O)N3CCCC(N3)C(=O)OCC(C)(C)C2)C1
Response: 22.4

Query: Provide measured viability, T/C value, entry: CC1(C)CCC(Nc2ncc(C(F)(F)F)c(-c3c[nH]c4c(P(C)(C)=O)c(C#N)ccc34)n2)CN1 (centres undefined) + CCn1c(-c2cc(N3CCN(C)CC3)cnc2C(C)OC)c2c3cc(ccc31)-c1csc(n1)CC(NC(=O)C1CC1C)C(=O)N1CCCC(N1)C(=O)OCC(C)(C)C2
Response: 14

Query: Provide measured viability, T/C value, entry: CC1(C)CCC(Nc2ncc(C(F)(F)F)c(-c3c[nH]c4c(P(C)(C)=O)c(C#N)ccc34)n2)CN1 (centres undefined) + CCn1c(-c2cccnc2C(C)OC)c2c3cc(ccc31)N1CCOC(CC(NC(=O)C(C(C)C)N(C)C(=O)C3(F)CCN(C(=O)C#CC(C)(C)N(C)C)CC3)C(=O)N3CCCC(N3)C(=O)OCC(C)(C)C2)C1
Response: 21.4
